Could you please report measured Ki for the items listed next?
- System: receptor sites of clonidine (rat cortex membranes) (Rattus norvegicus)
- Construct: measured on rat cortex membranes; from tissue; host or cells: rat cortex membranes
- Sequence (P22909 1-465): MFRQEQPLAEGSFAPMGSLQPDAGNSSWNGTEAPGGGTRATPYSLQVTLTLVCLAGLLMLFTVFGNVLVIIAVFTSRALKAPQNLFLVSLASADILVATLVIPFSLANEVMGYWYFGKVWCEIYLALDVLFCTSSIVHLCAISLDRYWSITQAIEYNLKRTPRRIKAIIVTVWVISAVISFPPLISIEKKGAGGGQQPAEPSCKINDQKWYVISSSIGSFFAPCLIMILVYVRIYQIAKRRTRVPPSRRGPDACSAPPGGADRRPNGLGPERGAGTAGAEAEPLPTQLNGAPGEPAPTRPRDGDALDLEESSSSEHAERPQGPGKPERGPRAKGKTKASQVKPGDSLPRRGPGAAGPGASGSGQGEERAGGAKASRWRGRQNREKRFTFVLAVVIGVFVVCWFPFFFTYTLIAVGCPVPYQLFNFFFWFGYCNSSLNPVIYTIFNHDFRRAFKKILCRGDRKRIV
- Assay Summary: Affinity for the receptor sites of clonidine (3H clonidine binding, rat cortex membranes)
Give bare numbers, in µM.

A selection of reference data follows.
INSERT INTO assay_data (structure, reported_value) VALUES
  ('CN1CCN(c2nc(N)c(Cl)c(Cl)n2)CC1', 0.051),
  ('Cc1c(Cl)nc(N2CCN(C)CC2)nc1NC(C)C', 0.016),
  ('CC(C)Nc1nc(N2CCN(C)CC2)nc(Cl)c1Cl', 0.005);

Continue with the next molecule.
q: Please look up its Ki: "CNc1nc(N2CCN(C)CC2)nc(Cl)c1Cl"
a: 0.044
